# Read-out: Interleukin-6 (IL6), IL6 (gene 3569)
# experimental details: BSK_CASM3C_IL6: BioMAP Diversity Plus: CASM3C Assay for Interleukin-6 (IL6) Biomarker Activity for (AID 2283040)
# conditions: primary human coronary artery smooth muscle cells; actives raise or lower the signal
Calls of active or inactive are those of the source. Rule for the calls: active = hit-call score of the fitted dose curve at least 0.9, where 1 is the maximum; inactive = score below 0.9.
readout name: AC50

{"structure as smiles": "Oc1cc(Cl)ccc1Cl", "observed value": "inactive"}
{"structure as smiles": "O=c1[nH]c(Cl)c(Cl)cc1Cl", "observed value": "inactive"}
{"structure as smiles": "O=C1C(Cl)=C(Cl)C(=O)C(Cl)=C1Cl", "observed value": "20 µM (active)"}
{"structure as smiles": "O=S(=O)(c1ccccc1)c1ccccc1", "observed value": "inactive"}

Give a short answer stating reported AC50 for "O=c1c2ccccc2c(=O)c2c1cc(Cl)c1[nH]c3c([nH]c12)c(Cl)cc1c(=O)c2ccccc2c(=O)c13" . inactive

Supply reported AC50 belonging to this compound: "CC1(C)[C@H](C(=O)O[C@H](C#N)c2cccc(Oc3ccccc3)c2)[C@@H]1C=C(Br)Br" inactive

----------
# experimental details: CCTE_Shafer_MEA_dev_active_electrodes_number: CCTE's Neural Network Formation Assay for Number of Active Electrodes, Shafer Lab (AID 2284040)
Results filed as inconclusive are left out. The source made the active and inactive calls. Rule for the calls: active = hit-call score of the fitted dose curve at least 0.9, where 1 is the maximum; inconclusive = response in the unintended direction; inactive = score below 0.9.
One label from this list, please: label 1 for active, label 0 for inactive

{"compound": "CCOP(=O)(OCC)OC(Cl)C(Cl)(Cl)Cl (centres undefined)", "cat": "label 1"}
{"compound": "CC(=O)[O-].CC(=O)[O-].O.O.O.[Pb+2]", "cat": "label 1"}
{"compound": "CC1(C)[C@H](C=C(Cl)Cl)[C@@H]1C(=O)O[C@@H](C#N)c1cccc(Oc2ccccc2)c1", "cat": "label 1"}

Let's switch to this compound now.
Would you mind telling me which call this test gave CP(=O)(O)CCC(N)C(=O)O (centres undefined) ? label 0

----------
Catalogue of AC50 values
# Test system: SERPINA7 (gene 6906)
# experimental details: CCTE_GLTED_hTBG: CCTE's human Thyroxine-binding Globulin (TBG) Inhibition Assay, Great Lakes Toxicology and Ecology Division (GLTED) Lab (AID 2284343);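 note: active chemicals lower fluorescence versus DMSO baseline by displacing probe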
Activity calls are given as the source filed them. How the source made its calls: active means hit-call score of the fitted dose curve at least 0.9, where 1 is the maximum; inconclusive means response in the unintended direction; inactive means score below 0.9.

The examples below pair each entry with its known result.
{"compound": "c1ccc(P(c2ccccc2)c2ccccc2)cc1", "AC50": "41.7 µM (active)"}
{"compound": "Cc1ccc(OP(=O)(Oc2ccc(C)cc2)Oc2ccc(C)cc2)cc1 (tested in a mixture with another compound)", "AC50": "1.03 µM (active)"}
{"compound": "CCOC(=O)COc1ccc(Cl)cc1Cl", "AC50": "24.6 µM (active)"}

Fill in reported AC50 for this entry: "CC(C)(c1cc(Cl)c(O)c(Cl)c1)c1cc(Cl)c(O)c(Cl)c1" 8.77 µM (active)

----------
# measurement target: Cellular tumor antigen p53 (Homo sapiens)
# experimental details: TOX21_p53_BLA_p5_ratio: Tox21 HCT-116 p53 Agonism Beta-lactamase Assay, Ratio, Phase 5 (AID 2283599)
Records with an inconclusive call do not appear. The source made the active and inactive calls. The calls were made as follows: active = hit-call score of the fitted dose curve at least 0.9, where 1 is the maximum; inconclusive = response in the unintended direction; inactive = score below 0.9.
Give one outcome, nothing more. List: Yes for active, No for inactive

Reference set, count: 3
{"compound": "COP(N)(=S)Oc1ccccc1C(=O)OC(C)C (stereo unspecified)", "cat": "No"}
{"compound": "N#CC(Cl)Cl", "cat": "No"}
{"compound": "[CH3][Hg][Cl]", "cat": "Yes"}

Tell me the assay call for CC[N+]1(C)CCCC(OC(=O)C(O)(c2ccccc2)c2ccccc2)C1 (stereo unspecified) please. No

Tell me the assay call for "O=C(CCl)C(Cl)Cl" please. Yes

Called result for CC(Cl)C(=O)O (stereo unspecified) No

Outcome logged for CC(Cc1ccccc1)NC=O (stereo unspecified) in this assay: No

I would be grateful if you could indicate the recorded call for "Oc1cc(Cl)cc(Cl)c1" . Yes

----------
# measurement target: Paired box protein Pax-6 (Homo sapiens)
# experimental details: ATG_Pax6_CIS: Attagene CIS-FACTORIAL HepG2 Assay for human Paired Box 6 (PAX6) (AID 2282956)
# conditions: HepG2 CIS-FACTORIAL PAX6 reporter transcription, RNA readout; actives raise or lower the signal
The source made the active and inactive calls. How the source made its calls: active means hit-call score of the fitted dose curve at least 0.9, where 1 is the maximum; inactive means score below 0.9.
Assign a class; possible classes are active, inactive

{"compound": "CCC1CCC(=O)O1 (centres undefined)", "cat": "inactive"}

How was "C[C@]12CC[C@H]3[C@@H](CC[C@@]45O[C@@H]4C(O)=C(C#N)C[C@]35C)[C@@H]1CC[C@@H]2O" classified in this test? active

----------
# experimental details: ATG_ISRE_CIS: Attagene CIS-FACTORIAL HepG2 Assay for human Interferon Regulatory Factor 1 (IRF1) binding to an Interferon-Stimulated Response Element (ISRE) (AID 2282948)
# conditions: HepG2 ISRE cis-reporter (Attagene), mRNA transcription readout; actives raise or lower the signal
Active and inactive are the calls of the source. Rule for the calls: active = hit-call score of the fitted dose curve at least 0.9, where 1 is the maximum; inactive = score below 0.9.
The categories you may choose from are YES for active, NO for inactive

Would you mind telling me which call this test gave "O=C1C(Cl)=C(Cl)C(=O)C(Cl)=C1Cl" ? NO

Hello, I am checking results. What call was entered for "O=[N+]([O-])C=Cc1ccccc1" ? YES

Hi team, can someone confirm the assay call for "CC(C)C(=O)Cl" ? NO

State the result this test recorded for "CCOC(=O)NC(=S)Nc1ccccc1NC(=S)NC(=O)OCC" . NO

Short answer needed: outcome of this test for "O=c1[nH]c(Cl)c(Cl)cc1Cl" ? NO

So what was the verdict on "CC1(C)C(=O)NC(=O)NC1=O" in this test? NO

What is the recorded call for this compound in the test? "C=CCN(CC=C)C(=O)C(Cl)Cl" NO

// outcome(item) with item = CC(C)(C)C(O)C(Oc1ccc(-c2ccccc2)cc1)n1cncn1 (centres undefined) YES

----------
# experimental details: CCTE_Simmons_CellTiterGLO_HEK293T: Viability Assessment in CCTE's Assays for Thyroperoxidase (TPO) Inhibition, Simmons Lab (AID 2283665)
Results filed as inconclusive are left out. Calls of active or inactive are those of the source. The calls were made as follows: active = hit-call score of the fitted dose curve at least 0.9, where 1 is the maximum; inconclusive = response in the unintended direction; inactive = score below 0.9.
Please state which outcome applies, choosing from 1 (active), -1 (inactive)

Some entries whose results are on file:
{"structure as smiles": "COc1cc(OC)nc(Oc2cccc(Oc3nc(OC)cc(OC)n3)c2C(=O)O)n1", "cat": -1}
{"structure as smiles": "Nc1ccccc1", "cat": -1}
{"structure as smiles": "S=c1[nH]c2ccccc2[nH]1", "cat": -1}
{"structure as smiles": "O=C=Nc1ccccc1", "cat": -1}
{"structure as smiles": "CC1CCCC1.[C-]#[O+].[C-]#[O+].[C-]#[O+].[Mn]", "cat": -1}
{"structure as smiles": "[CH3][Hg][Cl]", "cat": 1}
{"structure as smiles": "CC(C)(O)C#N", "cat": -1}
{"structure as smiles": "Cc1ccc2cc3c(ccc4ccccc43)c3c2c1CC3", "cat": -1}

Alright, here's another compound for you.
Which outcome was assigned to "CCCCCCCCCCCCCCCC[N+](C)(C)C" in this test? 1

----------
# measurement target: Cellular tumor antigen p53 (Homo sapiens)
# experimental details: TOX21_p53_BLA_p4_ratio: Tox21 HCT-116 p53 Agonism Beta-lactamase Assay, Ratio, Phase 4 (AID 2283601)
Inconclusive results are not listed. Calls of active or inactive are those of the source. The calls were made as follows: active = hit-call score of the fitted dose curve at least 0.9, where 1 is the maximum; inconclusive = response in the unintended direction; inactive = score below 0.9.
The categories you may choose from are label 1 for active, label 0 for inactive

Example entries and their recorded answers appear below.
{"molecule": "CCCN(CCC)C(=O)Cc1c(-c2ccc(Cl)cc2)nc2ccc(Cl)cn12", "cat": "label 0"}
{"molecule": "CCCCCc1cc(O)c2c(c1)OC(C)(C)[C@@H]1CCC(C)=C[C@@H]21", "cat": "label 1"}
{"molecule": "CCOC(=O)COc1ccc(Cl)cc1Cl", "cat": "label 0"}
{"molecule": "[O]=[Cr](=[O])([OH])[O][Cr](=[O])(=[O])[OH]", "cat": "label 1"}
{"molecule": "O=C1CC[C@@]2(O)[C@H]3Cc4ccc(O)c5c4[C@@]2(CCN3CC2CC2)[C@H]1O5", "cat": "label 0"}
{"molecule": "COC1=CC=C2[C@H]3Cc4ccc(OC)c5c4[C@@]2(CCN3C)[C@H]1O5", "cat": "label 0"}

State the result this test recorded for O=C1NCN(c2ccccc2)C12CCN(CC1COc3ccccc3O1)CC2 (stereo unspecified) . label 0

Hello, I am checking results. What call was entered for "CCS(=O)(=O)C(C)(C)S(=O)(=O)CC" ? label 0

Please share the test call associated with "C=C(C#N)CCC#N" . label 0

----------
# experimental details: CCTE_Mundy_HCI_Cortical_Synap_Neur_Matur_NeuriteSpotCountPerNeuron: CCTE's Synaptogenesis and Neurite Maturation Assay in rat cortical cells for Neurite Spot Count per Neuron Count, Mundy Lab (AID 2284215)
Calls of active or inactive are those of the source. The calls were made as follows: active = hit-call score of the fitted dose curve at least 0.9, where 1 is the maximum; inactive = score below 0.9.
Output constraint: value belongs to active, inactive

For orientation, consider the following solved cases.
{"compound": "C[n+]1ccc(-c2cc[n+](C)cc2)cc1", "cat": "active"}
{"compound": "CN1C(=O)CN=C(c2ccccc2)c2cc(Cl)ccc21", "cat": "inactive"}
{"compound": "CC1(C)[C@H](C=C(Cl)Cl)[C@H]1C(=O)OCc1c(F)c(F)cc(F)c1F", "cat": "active"}
{"compound": "CC1(C)[C@H](C=C(Cl)Cl)[C@@H]1C(=O)O[C@@H](C#N)c1cccc(Oc2ccccc2)c1", "cat": "inactive"}
{"compound": "CCOP(=O)(OCC)OC(Cl)C(Cl)(Cl)Cl (stereo unspecified)", "cat": "inactive"}
{"compound": "O=[As]O", "cat": "active"}
{"compound": "CC1(C)C(C=C(Cl)c2ccc(Cl)cc2)C1C(=O)OC(C#N)c1ccc(F)c(Oc2ccccc2)c1 (stereo unspecified)", "cat": "active"}
{"compound": "O.O.O.O.O.[Cd+2].[Cd+2].[Cl-].[Cl-].[Cl-].[Cl-]", "cat": "active"}

// switching to the query compound
What call does the record list for Cc1ccc(OP(=O)(Oc2ccc(C)cc2)Oc2ccc(C)cc2)cc1 (tested in a mixture with another compound) ? active
